Molecular target: T1, cynomolgus monkey IL-33 expressed with a C-terminal hexahistidine tag (cynomolgus monkey)
T1 construct: also called MfIL-33-6His; Mf-IL-33-6His
T1 chain: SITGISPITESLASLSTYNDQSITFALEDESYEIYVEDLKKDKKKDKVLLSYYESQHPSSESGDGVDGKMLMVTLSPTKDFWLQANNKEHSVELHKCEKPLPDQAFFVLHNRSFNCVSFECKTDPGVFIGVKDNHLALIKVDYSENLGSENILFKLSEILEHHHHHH
Test: BLI; captured MfIL-33-6His, mAb-1 step with Isotype control
EXPERIMENTAL READOUT: mAb-2 Binding to the Pre-complex of mAb-1 & MfIL-33-6xHis (nm)
Answer in nm, number only, no unit symbol.

Lab note: H4H9663P (antibody, human IgG4, V domains shown, Human IgG4 Fc (H4H)) VH: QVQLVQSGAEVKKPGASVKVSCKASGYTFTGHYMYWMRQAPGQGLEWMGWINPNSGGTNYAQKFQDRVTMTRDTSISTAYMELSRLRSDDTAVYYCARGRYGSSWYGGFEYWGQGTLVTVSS VL: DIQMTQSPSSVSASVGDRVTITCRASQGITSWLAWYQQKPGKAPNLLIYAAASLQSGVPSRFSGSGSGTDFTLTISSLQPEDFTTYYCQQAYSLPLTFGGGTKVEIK gave mAb-2 Binding to the Pre-complex of mAb-1 & MfIL-33-6xHis of 0.23

Form: binder = H4H9660P (antibody, human IgG4, V domains shown, Human IgG4 Fc (H4H)) VH: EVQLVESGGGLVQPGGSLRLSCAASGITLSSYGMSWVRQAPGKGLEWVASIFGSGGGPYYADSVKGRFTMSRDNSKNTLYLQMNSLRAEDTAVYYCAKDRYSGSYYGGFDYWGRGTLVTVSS VL: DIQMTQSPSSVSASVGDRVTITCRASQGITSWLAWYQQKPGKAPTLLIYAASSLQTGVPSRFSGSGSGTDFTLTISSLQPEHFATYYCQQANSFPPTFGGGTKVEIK ; mAb-2 Binding to the Pre-complex of mAb-1 & MfIL-33-6xHis = 0.26

From: patent US20160362487A1
